Origin of the recorded values: patent US9102752B2

What Reactivity of antisera with peptide (specificity analysis ELISA) was measured for each of the following?
Tested on: anti-Aβ antibodies in macaque antisera
Assay: Specificity analysis (10-mer peptide ELISA) of antisera from Cynomolgus macaques
Format: binding
Conditions: antisera of macaques given UBI AD Vaccine 750 μg/dose; 9 WPI
One number for each entry.

28 (HHQKLVFFAE; PEPTIDE (1)..(10) Abeta 13-22 or APP 770(H684-E693); listed as Homo sapiens) [compound 28]    0.046

Record Reactivity of antisera with peptide (specificity analysis ELISA) per entry; entries follow.
1. 18 (EFRHDSGYEV; PEPTIDE (1)..(10) Abeta 3-12 or APP 770(E674-V683); listed as Homo sapiens) [compound 18]
2. 14 (VKMDAEFRHD; PEPTIDE (1)..(10) Abeta -3-7 or APP 770(V669-D678); listed as Homo sapiens) [compound 14]
3. 20 (RHDSGYEVHH; PEPTIDE (1)..(10) Abeta 5-14 or APP 770(R676-H685); listed as Homo sapiens) [compound 20]
4. 24 (GYEVHHQKLV; PEPTIDE (1)..(10) Abeta 9-18 or APP 770(G680-V689); listed as Homo sapiens) [compound 24]

Response line:
1. 0.042
2. 0.061
3. 0.453
4. 0.052

Prompt line: Record request: Reactivity of antisera with peptide (specificity analysis ELISA) value, item 23 (SGYEVHHQKL; PEPTIDE (1)..(10) Abeta 8-17 or APP 770(S679-L688); listed as Homo sapiens) [compound 23]
Response line: 0.077
